target: hIMPDH2 (Homo sapiens)
Construct: purchased NovoCIB SAS (Lyon, France)
testDescription: In vitro hIMPDH2 inhibition assay
Assay type: biochemical
appliedConditions: at 10 µM; ± SD
Description: The enzyme (hIMPDH2) was purchased from NovoCIB SAS (Lyon, France). […] The assay was performed in a 200 µl final volume in 96-well UV plates (Tarsons, 980040, Tarsons Products Pvt. Ltd., Kolkata, India) with a reaction buffer composed of 100 mM Tris–HCl (pH 8.6), 100 mM KCl and 5 mM DTT, 4% v/v DMSO plus or minus test compound and 0.15 mU of purified hIMPDH2 enzyme per well (from 1.5 mg/ml stock solution). […] The generated NADH was measured by reading the absorbance at 340 nm. […]
measure: hIMPDH2 enzyme % Inhibition (%)
Express the result in % but write the number alone.

Study these solved cases before continuing.
# structure, measureUnit, hIMPDH2 enzyme % Inhibition
measured = [
    ("COc1c(C)c2c(c(O)c1C/C=C(\\C)CCC(=O)NCc1ccco1)C(=O)OC2", "%", 67.18),
    ("COc1c(C)c2c(c(O)c1C/C=C(\\C)CCC(=O)NCCCCc1ccccc1)C(=O)OC2", "%", 93.62),
    ("COc1c(C)c2c(c(O)c1C/C=C(\\C)CCC(=O)N[C@H](C)c1ccccc1)C(=O)OC2", "%", 73.94),
    ("COc1c(C)c2c(c(O)c1C/C=C(\\C)CCC(=O)NCc1ccc3c(c1)OCO3)C(=O)OC2", "%", 87.09),
    ("COc1ccc(NC(=O)CC/C(C)=C/Cc2c(O)c3c(c(C)c2OC)COC3=O)cc1", "%", 54.84),
    ("COc1c(C)c2c(c(O)c1C/C=C(\\C)CCC(=O)NCc1ccccc1Cl)C(=O)OC2", "%", 72.04),
]

Record "COc1c(C)c2c(c(O)c1C/C=C(\C)CCC(=O)NCc1ccc(Cl)cc1)C(=O)OC2" , field hIMPDH2 enzyme % Inhibition: 81.36

----------
testDescription: hPBMC proliferation assay
Format: cell-based
appliedConditions: human, human peripheral blood mononuclear cells (hPBMC), read-out: % cell viability
measure: viability (%)
# value in %; strip the unit string

# molecule, viability [%]
records = [
    ("COc1c(C)c2c(c(O)c1C/C=C(\\C)CCC(=O)O)C(=O)OC2 [Compound 1, Mycophenolic acid, reference compound]", 63),
]

From here, focus on the item given below.
// sample "COc1c(C)c2c(c(O)c1C/C=C(\C)CCC(=O)NCCCCc1ccccc1)C(=O)OC2" , its viability was 65
